// provenance: ChEMBL document CHEMBL1961873

# measured_on: Cyclin-dependent kinase 5 (Homo sapiens) (UniProt Q00535)
# Sequence (Q00535 whole entry, looked up): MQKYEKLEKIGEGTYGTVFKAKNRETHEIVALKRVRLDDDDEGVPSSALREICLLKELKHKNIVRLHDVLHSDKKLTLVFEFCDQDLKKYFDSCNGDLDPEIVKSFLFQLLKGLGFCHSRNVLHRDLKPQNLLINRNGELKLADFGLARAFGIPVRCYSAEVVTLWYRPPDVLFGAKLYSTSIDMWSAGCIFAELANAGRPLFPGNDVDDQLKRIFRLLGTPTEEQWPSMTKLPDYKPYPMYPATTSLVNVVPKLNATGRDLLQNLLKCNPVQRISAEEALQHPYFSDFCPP
# condition_description: at 1 µM;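 further: mean value of inhibition, with the enzyme tested as CDK5/p35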
Task for the reader: assign each of the following compounds its reported inhibition.
Numbers only, in %.

>  <compound>
COC(=O)Nc1nc2ccc(Oc3ccc(NC(=O)Nc4cc(C(F)(F)F)ccc4F)cc3)cc2s1

>  <inhibition, %>
1.66

$$$$

Dear colleague, could you send me inhibition for each of the items below? Thanks.
1. CN(C)CCNC(=O)Nc1ccc(N(C)c2ccnc(Nc3ccc(CS(C)(=O)=O)cc3)n2)cc1
2. CCn1c(-c2nonc2N)nc2cncc(C(=O)NCCNC)c21
3. CNC(=O)c1sc(-n2cnc3cc(OC)c(OC)cc32)cc1OCc1ccccc1C(F)(F)F
4. CC1=C(C(=O)Nc2ccc3[nH]ncc3c2)C(c2ccc(F)cc2)N=C(c2ccc(C(F)(F)F)nc2)N1 (centres undefined)
5. NS(=O)(=O)c1ccc(N/N=C2\C(=O)Nc3ccc(C(=O)NCc4ccncc4)cc32)cc1

result:
2.57
0.97
1.5
0.43
79.1

Dear colleague, could you send me inhibition for each of the items below? Thanks.
1. NC(=O)c1ccc2c(-c3ccnc(NCCCO)n3)c(-c3ccc(F)cc3)nn2c1
2. O=C1Nc2ccccc2/C1=C1\CCc2cc(O)ccc21
3. Cc1cc(O)cc(C)c1/C=C/c1cncc(C(=O)OC(C)(C)C)c1
4. COc1cc(Nc2ncc(-c3ccccc3)o2)cc(OC)c1
5. N#Cc1ccc2c(-c3ccnc(NC4CC4)n3)c(-c3ccc(F)cc3)nn2c1

result:
1: 0.98; 2: 7.54; 3: 2.53; 4: 6.57; 5: -0.13
